Experiment: protein stability index of a GFP-peptide fusion (GPS, HEK-293T) (PSI 1-6); higher = more stable;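 further: 24-mer peptide tiles fused after GFP, lentivirally expressed, FACS-sorted into six equal bins by GFP/DsRed ratio, decoded by Illumina sequencing, PSI is the read-weighted mean bin number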
Conditions: treatment: MLN4924 1 uM, 8 h; c terminus: a fixed tail appended
assay_metric: protein stability index

1. TSPLTAEKLCIYTDNSIKPQELLE [CCND2]    4.08
2. MAVALGCAIQASLNQGSVFQEYDT [ZNF449]    2.88
3. LNVNLNSVVLRRARGGAVSARYVL [DUSP5]    2.26
4. AYHVPNRTLASGRLLSYRGERVAA [DNAAF3]    3.4
5. ICTQKCALNWTDIPVAMEHQPPYI [VPS39]    2.12
6. PAICALRHLTSRHQEAEMAQNAVR [CTNNB1]    3.67
7. AWFLPMPQKSLFFHHIPSTCQRVN [SLC19A2]    2.23
8. PGKLFIGGLNRETNEKMLKAVFGK [RBMY1A1]    2.86
9. SENLEEETENIIAANHWVLPAAEF [TRIP13]    4.61
10. EETGSRFHNCLIQLYCEKVQGLMK [VPS39]    2.45
11. KPQAPQKLDPTLSSCFFIESCGAQ    3.15
12. AMAYHHDSRRIFVGQDNGAVMEFH [WDFY1]    2.96
13. KHYRLQFYMFAWTHVTLLITVTQS [CDS1]    3.16
14. INLEGKTFYSKKDRPLCKSHAFSH [PDLIM7]    2.71
15. GSGAPSPLSKSSPATTVTSPNSTP [SNAP91]    5.4
16. YKGLFEVNPWKREVKLLLSSETPI [APMAP]    2.14
17. YAIAGYDGNSLLSSIECYDPIIDS [KLHL12]    3.01
18. PFLLLFLGNFFTTLRVVHHKFHSQ [TMEM120A]    3.1
19. FDGTAHLSSVEAYNIRTDSWTTVT [KLHL12]    2.62
20. YYIPLVELVPHPETAPTTVDRTHA [CRYL1]    3.1
21. PEEKKEEEGSANRRPEDQELESLS [CHGA]    5.71
22. AFPKMALQAKQDGKKDVSHSSPVD [LCOR]    5.16
23. TFRQYCGAACTCHVRNPLSACSIM [RNF208]    2.2
24. CWYCNRDFDDEKILIQHQKAKHFK [ZNF207]    4.45
25. NHLDPFGHIILNSMHKYQPRLHIV [TBX5]    2.08
26. NNEEQRSGLIYLTNHIAPHARNGL [IKZF1]    3.52
27. QIAQLEASLAAAKKQLADETLLKV [LMNB1]    2.8

----------
Test: protein stability index of a GFP-peptide fusion (GPS, HEK-293T) (PSI 1-6); higher = more stable
Conditions: treatment: MLN4924 1 uM, 8 h; c terminus: a fixed tail appended
Recorded protein stability index determines the label; the label ranges are Low = under 3, Medium = from 3 up to 4, High = 4 and over

1. VVKVISTIPATLLVDHVGSKTFLC [SLC2A12]    Low
2. THLENPTRYHLQQARRQQVKQYLS [TFE3]    Medium
3. GPWLEWEIMLQYCFPRLDINVSKG [PRIM1]    Low
4. KRKEEECSTTDHPYKKPYMETSPS [TBX5]    High
5. AREGGGCGRSEVRPVAPRRPRDAV [SMAD6]    High
6. RAQKQCRKSSFAFYQAVRDLLPVW [ANKRD9]    Low
7. EEKRRREEEERLRREEEERRRIEE [ACBD3]    High
8. MKALLGSYAHSVEDTHVQIGQVHE [FCHO1]    Medium
9. CRFLLNSRVTDAAFNFLLVWYYCT [TMEM120A]    Low
10. HVEEHFQLLARRMQVDKKRVYLAT [FUT8]    Low
11. RNSTPPSLARNPAPGVLTNKRKTY [ZC2HC1A]    High
12. TRRKKGKKDKDISKEKDTQNQNIT [KMT2E]    High
13. MERRRLRGSIQSRYISMSVWTSPR [PRAME]    Low
14. MHPKETTRQLSLAVKDGLIVETLT [ZMYND11]    Medium
15. EADSQEQGHPQTGCECEDGPDGQE [GAGE1]    High
16. AWLTEEEPEPAEVTSTSQSPHSPD [DDIT3]    High
17. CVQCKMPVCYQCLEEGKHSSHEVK [TRIM9]    High
18. PPRIPQADQWKSSNKSLVEALGLE [RHOBTB1]    High
19. VNLFLHFTVNPKPRVEYIDRPRCC [BTBD1]    Medium
20. VMSGKMSVSKAQSIYGIPHSTLEY [LCOR]    Low
21. QPMQNGEEDRPLGGGEGHQPAGNR [BEX3]    High
22. LHRILHHKHVVQFYHYFEDKENIY [PLK2]    Low
23. IGQVHEEFKQNIENVSVEMLLRKF [FCHO1]    Medium

----------
Assay: protein stability index of a GFP-peptide fusion (GPS, HEK-293T) (PSI 1-6); higher = more stable
Settings: treatment: MLN4924 1 uM, 8 h; c terminus: a fixed tail appended
Please mark True if the recorded protein stability index is equal to or greater than 3, and False if it falls below.

1. HLLGIPHSVLQIRYSGKILKNNET [IQUB]    False
2. LKPNNLSCDLPEERYRHEIAHDGQ [KLHDC10]    True
3. NEPSINFYKRRGASDLSSEEGWRL [SAT1]    True
4. LTMNSEDERRDAEERASLAGNRNS [KCNK9]    True
5. AVIKSNHSYCRMFLQRGADTNLGR [ASB7]    False
6. FNGKGKKIRKPRTIYCSLQLQALN [DLX1]    False
7. GLELALACDIRVAASSAKMGLVET [AUH]    False
8. GREYPDAQGFAADVRLMFSNCYKY [BRD3]    False
9. KLSPLRDRLVVTECQLTHSHPACP [ZSWIM9]    True
10. YIAAFLHVLLPVALEFQPQLVLVA [HDAC6]    True
11. KQILDGVHYLHSKRIAHFDLKPEN [DAPK3]    True
12. ESKVKDILSKVQKNHVGKPLLKMD [FAM98B]    True
13. PPVWYLKEEDHYQRARKEREKEDY [RHOBTB2]    True
14. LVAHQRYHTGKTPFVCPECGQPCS [ZNF649]    True
15. ADGSPPLLPPGEPPLLGTFPRDHT [ANKRD40]    True
16. GPLGDQLHAQLRDLTSSSSDELSW [ELF3]    True
17. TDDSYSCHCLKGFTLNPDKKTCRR [MATN2]    True
18. RLEREERNQTQVLRQQQDEAYLAS [FAF2]    True
19. LPLPEQIHKASATIIEPAGESDNP [INTS4]    True
20. LQQIQGLIGGLEAQLSELRCEMEA [KRT15]    True
21. RYHFATGVWHQMGTDGYMPRELAS [KLHDC10]    False
22. DTYIVLAWISKIKGSPDVSASSDE [SMIM2]    False
23. KMDFKTNILLKNLVTIARKASLWQ [TRIM43]    False
24. IDEIISLESSYNDEMLSYLPGGTT [TFE3]    True
25. SARDASPTPSTDAEYPANGSGADR [NCK2]    True
26. QRDEQLRALQERLGQQQRDMRRDE [FBF1]    True

----------
Assay: protein stability index of a GFP-peptide fusion (GPS, HEK-293T) (PSI 1-6); higher = more stable
Details: treatment: DMSO; c terminus: a fixed tail appended
assay_metric: protein stability index

1. MKNLLFSEMWDIFLVRLLMAMAVM [MFSD9]    3.14
2. VNLFLHFTVNPKPRVEYIDRPRCC [BTBD1]    3.43
3. AVGYSSDSETLDLEEAEGAVGYQP [NFE2L1]    5.24
4. ESRKSKRRNSEFEIFVDCDINREQ [TPH1]    4.85
5. VYSLEPRLCGGKGGFGSMLRALGA [SDE2]    2.24
6. TAPLPMPEGPEPAAPGKQPGRGHT [ELOA2]    5.53
7. LHRILHHKHVVQFYHYFEDKENIY [PLK2]    2.58
8. GRSNAPITAPTEVEVMDETNCQKV [CSNK1G3]    5.55
9. LTAHLLPPRQALGSLCSPWAAPRV [YPEL3]    2.56
10. KQEENDVVEKLNLFLDLLQSYKDL [SNX8]    1.95
11. VILHLKEDQTEYLEERRVKEVVKK [HSP90AB1]    2.57
12. NMSLTALREKLLEAEQSLRNLEDI [TEKT4]    3.29
13. FACPSKTDFFKNIMNFIDIVAIIP [KCNA1]    3.29
14. YAIAGYDGNSLLSSIECYDPIIDS [KLHL12]    2.83
15. STDTAVTNEWEKRLSTSPVRLAAR [EPB41L3]    4.3
16. PSRREPPPRRSRSRSHDRLPYQRR [CLK3]    5.23
17. RFRFPSPILKVQYHPRDQNKVLVC [RBBP5]    2.32
18. MTMTTMPESLNSPVSGKAVFMEFG [DLX1]    2.42
19. VMSGKMSVSKAQSIYGIPHSTLEY [LCOR]    2.38
20. CVNMDRSFACQCPEGHVLRSDGKT [MATN2]    3.92
21. SRFRKAYKPEQPLVRLRGGAYIGE [LOXL2]    3.16
22. TAGLLREQVAQLKQKVMTHVSNGC [JUNB]    3.25
23. DEEVSSLTCDALTELLAKITNTDV [CCND2]    4.04
24. TPYKPPAGRAAAPELSYRVCVGSD [MYORG]    3.94
25. AWLTEEEPEPAEVTSTSQSPHSPD [DDIT3]    5.59
26. QPRKKYVQRKSDFDQTVFQEVFEP [NETO1]    4.14
27. VFAPVYFPEELHRKAALEQDLAFW [HMOX1]    2.14
